# experiment notes: Human microsome stability assay
# Assay type: in vitro ADME
# recorded conditions: human liver microsomes 0.5 mg/mL, 37° C., pH 7.4, NADPH regenerating system
# key: entry, value: Clearance of Human microsome

compound	Clearance of Human microsome, mL/min/kg
NCC[N+]1(CCNC(=O)[C@H]2CC[C@H](C(F)(F)c3cc(Cl)nc(N4CCN(S(=O)(=O)c5ccc(N6C[C@H](N)CC6=O)cc5)CC4)c3)CC2)CCCC1	6.15
NCCN(CCN)C(=O)[C@H]1CC[C@H](C(F)(F)c2cc(Cl)nc(N3CCN(S(=O)(=O)c4ccc(N5C[C@H](N)CC5=O)cc4)CC3)c2)CC1	9.94
NC1CC(=O)N(c2ccc(S(=O)(=O)N3CCN(c4cc(C(F)(F)[C@H]5CC[C@H](C(=O)NCCCO)CC5)cc(Cl)n4)CC3)cc2)C1 (stereo partly drawn)	7.41
NCCCNC(=O)[C@H]1CC[C@H](C(F)(F)c2cc(Cl)nc(N3CCN(S(=O)(=O)c4ccc(N5C[C@H](CO)OC5=O)cc4)CC3)c2)CC1	6.15
NCC1CN(C(=O)[C@H]2CC[C@H](C(F)(F)c3cc(Cl)nc(N4CCN(S(=O)(=O)c5ccc(N6C[C@H](N)CC6=O)cc5)CC4)c3)CC2)C1	6.15
NCCCNC(=O)[C@H]1CC[C@H](C(F)(F)c2cc(Cl)nc(N3CCC(S(=O)(=O)c4ccc(N5C[C@H](N)CC5=O)cc4)CC3)c2)CC1	7.74

###

# experiment notes: Human microsome stability assay
# Format: in vitro ADME
# recorded conditions: human liver microsomes 0.5 mg/mL, 37° C., pH 7.4, NADPH regenerating system
Cut-off 8 mL/min/kg on Clearance of Human microsome, inclusive. At or above means 1.0; below means 0.0.

compound	group
C[C@H]1C[C@H](N)CN1C(=O)[C@H]1CC[C@H](C(F)(F)c2cc(Cl)nc(N3CCN(S(=O)(=O)c4ccc(N5C[C@H](N)CC5=O)cc4)CC3)c2)CC1 [Example 064]	0.0
NCCNC(=O)c1ccc(C(F)(F)c2cc(Cl)nc(N3CCN(S(=O)(=O)c4ccc(N5CC(N)CC5=O)cc4)CC3)c2)cc1 (centres unmarked) [Example 017]	1.0
NCCCN(CCCN)C(=O)[C@H]1CC[C@H](C(F)(F)c2cc(Cl)nc(N3CCN(S(=O)(=O)c4ccc(N5C[C@H](N)CC5=O)cc4)CC3)c2)CC1 [Example 044]	0.0
NCC(=O)N[C@H]1CC[C@@H](NC(=O)[C@H]2CC[C@H](C(F)(F)c3cc(Cl)nc(N4CCN(S(=O)(=O)c5ccc(N6C[C@H](N)CC6=O)cc5)CC4)c3)CC2)C1 [Example 079]	1.0

###

# experiment notes: Human microsome stability assay
# Type: in vitro ADME
# recorded conditions: human liver microsomes 0.5 mg/mL, 37° C., pH 7.4, NADPH regenerating system

molecule	Clearance of Human microsome / mL/min/kg
N[C@@H]1CC(=O)N(c2ccc(S(=O)(=O)N3CCN(c4cc(C(F)(F)[C@H]5CC[C@H](C(=O)N[C@H]6CCC(N7C[C@H](N)C[C@H](N)C7)C6)CC5)cc(Cl)n4)CC3)cc2)C1 (some centres unmarked) [Example 081]	6.71
NC[C@@H]1CN(C(=O)[C@H]2CC[C@H](C(F)(F)c3cc(Cl)nc(N4CCN(S(=O)(=O)c5ccc(N6C[C@H](N)CC6=O)cc5)CC4)c3)CC2)C[C@@H]1CN [Example 067]	6.15
NCCCNC(=O)c1ccc(C(F)(F)c2cc(Cl)nc(N3CCN(S(=O)(=O)c4ccc(N5CC(N)CC5=O)cc4)CC3)c2)cc1 (centres unmarked) [Example 016]	8.63
NCCNC(=O)[C@H]1CC[C@H](C(F)(F)c2cc(Cl)nc(N3CCN(S(=O)(=O)c4ccc(N5C[C@H](N)CC5=O)cc4)CC3)c2)CC1 [Example 041]	9.73
CN1CC2(C1)CN(C(=O)[C@H]1CC[C@H](C(F)(F)c3cc(Cl)nc(N4CCN(S(=O)(=O)c5ccc(N6C[C@H](N)CC6=O)cc5)CC4)c3)CC1)C2 [Example 005]	6.15
NC(CO)CNC(=O)[C@H]1CC[C@H](C(F)(F)c2cc(Cl)nc(N3CCN(S(=O)(=O)c4ccc(N5C[C@H](N)CC5=O)cc4)CC3)c2)CC1 (some centres unmarked) [Example 052]	7.41
NCCCNC(=O)c1ccc(C(F)(F)c2cc(Cl)nc(N3CCN(S(=O)(=O)c4ccc(N5C[C@H](N)CC5=O)cc4)CC3)c2)nc1 [Example 026]	6.15
N[C@@H]1CC(=O)N(c2ccc(S(=O)(=O)N3CCN(c4cc(C(F)(F)[C@H]5CC[C@H](C(=O)N[C@H]6CNC[C@H]6N)CC5)cc(Cl)n4)CC3)cc2)C1 (stereo in doubt) [Example 011]	11.93
NCCCNC(=O)C1C[C@@H]2CC[C@H]1CC2C(F)(F)c1cc(Cl)nc(N2CCN(S(=O)(=O)c3ccc(N4C[C@H](N)CC4=O)cc3)CC2)c1 (some centres unmarked) [Example 053]	6.15
NCCCNC(=O)C1CC2C(C1)C2C(F)(F)c1cc(Cl)nc(N2CCN(S(=O)(=O)c3ccc(N4C[C@H](N)CC4=O)cc3)CC2)c1 (some centres unmarked) [Example 055]	8.58
NCC(O)CNC(=O)[C@H]1CC[C@H](C(F)(F)c2cc(Cl)nc(N3CCN(S(=O)(=O)c4ccc(N5C[C@H](N)CC5=O)cc4)CC3)c2)CC1 (some centres unmarked) [Example 036]	6.15
